Origin of the recorded values: paper PMC6628159

- Target: recombinant human HDAC6 (Homo sapiens, UniProt Q9UBN7)
- Sequence (Q9UBN7 1-1215): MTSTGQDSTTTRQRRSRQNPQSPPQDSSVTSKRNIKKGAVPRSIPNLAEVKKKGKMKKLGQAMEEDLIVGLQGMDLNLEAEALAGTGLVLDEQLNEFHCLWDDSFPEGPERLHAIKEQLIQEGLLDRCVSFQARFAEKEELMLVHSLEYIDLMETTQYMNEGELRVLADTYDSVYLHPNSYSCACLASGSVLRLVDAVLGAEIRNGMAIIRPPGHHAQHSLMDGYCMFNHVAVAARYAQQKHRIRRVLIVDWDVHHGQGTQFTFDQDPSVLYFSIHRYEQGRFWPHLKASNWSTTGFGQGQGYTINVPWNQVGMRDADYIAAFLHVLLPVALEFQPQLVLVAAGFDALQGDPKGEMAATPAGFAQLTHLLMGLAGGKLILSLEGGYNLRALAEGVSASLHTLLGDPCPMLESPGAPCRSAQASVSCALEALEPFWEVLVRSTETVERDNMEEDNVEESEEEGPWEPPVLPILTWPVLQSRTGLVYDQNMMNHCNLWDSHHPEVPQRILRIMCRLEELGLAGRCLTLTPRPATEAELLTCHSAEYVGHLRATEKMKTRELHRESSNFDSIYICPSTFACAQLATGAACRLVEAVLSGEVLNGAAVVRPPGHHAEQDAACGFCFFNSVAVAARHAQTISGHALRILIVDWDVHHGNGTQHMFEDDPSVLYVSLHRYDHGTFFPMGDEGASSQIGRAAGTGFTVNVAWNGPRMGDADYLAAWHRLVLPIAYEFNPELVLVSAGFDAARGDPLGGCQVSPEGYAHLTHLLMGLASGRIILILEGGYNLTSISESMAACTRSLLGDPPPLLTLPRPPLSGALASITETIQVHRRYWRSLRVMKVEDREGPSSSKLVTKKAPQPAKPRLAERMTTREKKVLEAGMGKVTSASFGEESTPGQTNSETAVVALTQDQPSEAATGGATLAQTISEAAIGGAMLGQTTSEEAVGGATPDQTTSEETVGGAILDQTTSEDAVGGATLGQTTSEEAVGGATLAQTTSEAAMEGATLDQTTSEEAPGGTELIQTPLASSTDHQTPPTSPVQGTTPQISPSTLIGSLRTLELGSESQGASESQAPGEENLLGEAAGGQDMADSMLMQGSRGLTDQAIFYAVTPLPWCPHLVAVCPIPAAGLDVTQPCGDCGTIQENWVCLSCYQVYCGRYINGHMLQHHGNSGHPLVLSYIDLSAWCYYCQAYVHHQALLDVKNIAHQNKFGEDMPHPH
- Assay details: Recombinant human HDAC6 enzymatic assay (Ac-peptide-AMC, fluorescence)
- Measurement setup: read-out: IC50 ± SD HDAC6
Record form. Attribute: pIC50. Fill in for each entry.
pIC50 is a log-scale quantity: -log10 of the concentration expressed in molar.

Any idea what its pIC50 is? The molecule is C[C@@]12CSC(=N1)c1csc(n1)CNC(=O)C[C@@H](/C(F)=C/CCS)OC(=O)[C@H](Cc1ccccc1)NC2=O [Compound 15b]
6.47

Any idea what its pIC50 is? The molecule is CC(C)[C@@H]1NC(=O)[C@]2(C)CSC(=N2)c2csc(n2)CNC(=O)C[C@@H](/C(F)=C/CCS)OC1=O [Compound 15a]
6.52
